System: MDA-MB-435
experiment-notes: NCI tumour cell line growth inhibition, 48 h
reported-metric: TGI

[
  {
    "compound": "CC(C)CN=C(N)N=C(N)N",
    "target-entity": "MDA-MB-435",
    "reported-metric": "TGI",
    "result": "> 100 µM"
  },
  {
    "compound": "Cn1cncc1CC1COC(=O)C1C(O)c1ccccc1 (centres undefined)",
    "target-entity": "MDA-MB-435",
    "reported-metric": "TGI",
    "result": "> 100 µM"
  },
  {
    "compound": "Nc1ccc(CCN2CCN(CCCc3ccccc3)CC2)cc1",
    "target-entity": "MDA-MB-435",
    "reported-metric": "TGI",
    "result": "> 100 µM"
  },
  {
    "compound": "BrCc1ccc(CBr)cc1",
    "target-entity": "MDA-MB-435",
    "reported-metric": "TGI",
    "result": "15.6 µM"
  },
  {
    "compound": "CN(CCCCCl)P(=O)(OCCS(=O)(=O)CC(NC(=O)CCC(N)C(=O)O)C(=O)NC(C(=O)O)c1ccccc1)OCC1OC(n2cc(F)c(=O)[nH]c2=O)CC1O (centres undefined)",
    "target-entity": "MDA-MB-435",
    "reported-metric": "TGI",
    "result": "> 100 µM"
  },
  {
    "compound": "COC(=O)C1=C(C)N2[C@H](C(=O)O)CO[C@@]2(C)[C@H](C(=O)OC)[C@H]1c1cccc([N+](=O)[O-])c1",
    "target-entity": "MDA-MB-435",
    "reported-metric": "TGI",
    "result": "> 100 µM"
  },
  {
    "compound": "COC(=O)C1=C(OC(=O)c2ccccc2)C(C(=O)OC)[C@]2(O)[C@@H](C(=O)OC)[C@H]1C[C@@H](c1ccccc1)[C@@H]2C(=O)OC (some centres undefined)",
    "target-entity": "MDA-MB-435",
    "reported-metric": "TGI",
    "result": "10.8 µM"
  },
  {
    "compound": "C/C(=C/CC[C@]1(CO)CC[C@]2(CO)[C@H](CC[C@@H]3[C@@]4(C)CC[C@H](OC5OCC(O)C(O)C5OC5OC(CO)C(O)C(O)C5O)C(C)(C)[C@@H]4CC[C@]32C)[C@H]1O)CO (some centres undefined)",
    "target-entity": "MDA-MB-435",
    "reported-metric": "TGI",
    "result": "> 100 µM"
  },
  {
    "compound": "O[C@H]1[C@H](O)[C@@H](O)[C@@]2(O)C[C@@H](O)[C@@H]1N2",
    "target-entity": "MDA-MB-435",
    "reported-metric": "TGI",
    "result": "> 100 µM"
  }
]

====

System: OVCAR-5 ovarian
experiment-notes: NCI tumour cell line growth inhibition, 48 h
Where a SMILES comes first, the peptide text is derived from it. [ ]: non-standard residue; d: D form. The star is where a group is joined. mTyr = N[CH](Cc1cccc(O)c1)C(=O)O; Cbz = O=C(OCc1ccccc1)*; OBn = c1ccc(CO*)cc1
reported-metric: TGI

[
  {
    "compound": "CC(=O)Oc1ccccc1C(=O)/C=C/c1cccc([N+](=O)[O-])c1",
    "reported-metric": "TGI",
    "result": "17.1 µM"
  },
  {
    "compound": "CCN(CCO)CC(C)Nc1ccc([N+](=O)[O-])c2sc3ccccc3c(=O)c12 (stereo not given)",
    "reported-metric": "TGI",
    "result": "18.5 µM"
  },
  {
    "compound": "CC1(C)CCC[C@]2(C)[C@@H](C=O)C(C=O)=CC[C@@H]12",
    "reported-metric": "TGI",
    "result": "33.2 µM"
  },
  {
    "compound": "CCn1c2ccccc2c2cc(/C=C(/C#N)C(N)=O)ccc21",
    "reported-metric": "TGI",
    "result": "3.95 µM"
  },
  {
    "compound": "CN(C)c1ccc(N=Nc2ccncc2)cc1",
    "reported-metric": "TGI",
    "result": "> 100 µM"
  },
  {
    "compound": "COC(CN1C=C(Sc2ccccc2)CC1)OC",
    "reported-metric": "TGI",
    "result": "> 100 µM"
  },
  {
    "compound": "COc1ccc(C(=O)N2c3ccccc3Sc3ccccc32)c(OC)c1",
    "reported-metric": "TGI",
    "result": "> 100 µM"
  },
  {
    "compound": "CCN(c1cccc(NC(=S)Nc2ccccc2N(CC)c2cc(-c3ccccc3)no2)c1)c1cc(-c2ccccc2)no1",
    "reported-metric": "TGI",
    "result": "> 100 µM"
  },
  {
    "compound": "COc1cccc(N2C(=O)C3c4[nH]c5ccc(C)cc5c4C4CCC(C(C)(C)C)CC4C3C2=O)c1 (stereo not given)",
    "reported-metric": "TGI",
    "result": "7.81 µM"
  },
  {
    "compound": "CCOc1nc(N)nc(C)c1N=Nc1ccc(Cl)cc1",
    "reported-metric": "TGI",
    "result": "> 100 µM"
  },
  {
    "compound": "CCN1C(=O)N(CC)C2C1NN=c1s/c(=C\\c3ccccc3Br)c(=O)n12 (stereo not given)",
    "reported-metric": "TGI",
    "result": "> 48.7 µM"
  },
  {
    "compound": "Nc1ccc(CCN2CCN(CCCc3ccccc3)CC2)cc1",
    "reported-metric": "TGI",
    "result": "> 100 µM"
  },
  {
    "compound": "CC1OC(O[C@H]2/C=C/C=C/C=C/C=C/C=C/C=C/C=C/[C@H](C)[C@@H](O)[C@@H](C)[C@H](C)OC(=O)CC(O)CC(O)CCC(O)C(O)CC(O)C[C@]3(O)C[C@H](O)C(C(=O)O)C(C2)O3)C(O)[C@H](N)C1O (stereo not given in full)",
    "reported-metric": "TGI",
    "result": "16.8 µM"
  },
  {
    "compound": "CC1(C)N=C(N)N=C(N)N1c1ccc(CCCCc2ccc(S(=O)(=O)F)cc2)c(Cl)c1",
    "reported-metric": "TGI",
    "result": "83.8 µM"
  },
  {
    "compound": "CCN(Cc1ccc(Cl)s1)c1ccc(CO)c(Cl)c1",
    "reported-metric": "TGI",
    "result": "0.297 µM"
  },
  {
    "compound": "COC(=O)C(Cc1cccc(O)c1)NC(=O)C(CC(=O)OCc1ccccc1)NC(=O)OCc1ccccc1 (stereo not given) (Cbz-Asp(OBn)-[mTyr]-OMe; configuration not given here)",
    "reported-metric": "TGI",
    "result": "> 100 µM"
  },
  {
    "compound": "Cc1ccc(CC(C)N)cc1 (stereo not given)",
    "reported-metric": "TGI",
    "result": "> 100 µM"
  },
  {
    "compound": "N#C/C(=C\\c1c[nH]c2ccccc12)C(=O)c1ccc(O)c(O)c1",
    "reported-metric": "TGI",
    "result": "> 100 µM"
  },
  {
    "compound": "COc1cc(/C=C(/C#N)C(N)=O)ccc1O",
    "reported-metric": "TGI",
    "result": "> 100 µM"
  },
  {
    "compound": "C=CCOC(=O)C1C2OC3(C(C(=O)OC)=C2C(=O)OC)c2ccccc2CCC13 (stereo not given)",
    "reported-metric": "TGI",
    "result": "> 10 µM"
  },
  {
    "compound": "CN(CCCNC(=O)c1nn(-c2ccc(Cl)cc2Cl)c2c1Cc1ccccc1-2)CCCNC(=O)c1nn(-c2ccc(Cl)cc2Cl)c2c1Cc1ccccc1-2",
    "reported-metric": "TGI",
    "result": "2.98 µM"
  },
  {
    "compound": "COc1ccc2cc(-c3c(-c4ccncc4)nc(-c4ccc(S(C)=O)cc4)n3C)ccc2c1 (stereo not given)",
    "reported-metric": "TGI",
    "result": "> 25 µM"
  },
  {
    "compound": "COc1ccc(C=O)c(NC(=O)C(C)C)c1",
    "reported-metric": "TGI",
    "result": "> 100 µM"
  },
  {
    "compound": "Cc1ccc2c(=O)cc(-c3ccc(-c4ccccc4)s3)[nH]c2n1",
    "reported-metric": "TGI",
    "result": "> 100 µM"
  },
  {
    "compound": "OC1(c2ccccc2)CSC2=Nc3ccccc3C3CCN1N23 (stereo not given)",
    "reported-metric": "TGI",
    "result": "32 µM"
  },
  {
    "compound": "COc1cc([C@@H]2c3cc(O)c(OC)cc3C=C(C(N)=O)[C@H]2C(N)=O)ccc1O",
    "reported-metric": "TGI",
    "result": "> 100 µM"
  },
  {
    "compound": "C/C(=C/CC[C@]1(CO)CC[C@]2(CO)[C@H](CC[C@@H]3[C@@]4(C)CC[C@H](OC5OCC(O)C(O)C5OC5OC(CO)C(O)C(O)C5O)C(C)(C)[C@@H]4CC[C@]32C)[C@H]1O)CO (stereo not given in full)",
    "reported-metric": "TGI",
    "result": "> 100 µM"
  },
  {
    "compound": "CC1(C)OCC(C(O)C2OC(C)(C)OC2/C=N\\O)O1 (stereo not given)",
    "reported-metric": "TGI",
    "result": "> 100 µM"
  },
  {
    "compound": "Cc1cc(N(CCC#N)CCC#N)ccc1/C=C1/N=C(c2ccccc2)N(N)C1=O",
    "reported-metric": "TGI",
    "result": "> 100 µM"
  },
  {
    "compound": "Cc1nc(-c2ccc(N=Cc3ccc(N(CCOS(C)(=O)=O)CCOS(C)(=O)=O)cc3C)cc2)cs1",
    "reported-metric": "TGI",
    "result": "> 100 µM"
  },
  {
    "compound": "O=[N+]([O-])c1cc(S(=O)(=O)Oc2ccccc2)ccc1Cl",
    "reported-metric": "TGI",
    "result": "5.17 µM"
  },
  {
    "compound": "CCCCCn1sc(=O)n(Cc2ccc(CNC(=O)OCc3ccc4cccc(O)c4n3)cc2)c1=O",
    "reported-metric": "TGI",
    "result": "3.09 µM"
  },
  {
    "compound": "O=C(Nc1cccc(F)c1)c1cc2ccc(O)cc2oc1=Nc1ccccc1F",
    "reported-metric": "TGI",
    "result": "36.1 µM"
  },
  {
    "compound": "CCCCCCN(N)C(=O)CC#N",
    "reported-metric": "TGI",
    "result": "> 100 µM"
  },
  {
    "compound": "O=C(NC1CCCC1=O)c1ccccc1 (stereo not given)",
    "reported-metric": "TGI",
    "result": "> 100 µM"
  },
  {
    "compound": "Cc1cccc(NC(=O)c2sc3nc4c(cc3c2N)CN(Cc2ccccc2)CC4)c1C",
    "reported-metric": "TGI",
    "result": "> 50 µM"
  },
  {
    "compound": "Fc1cccc(C2SCc3nc4ccccc4n32)c1F (stereo not given)",
    "reported-metric": "TGI",
    "result": "> 100 µM"
  },
  {
    "compound": "Cc1ccc(NC(=O)c2ccccc2C(=O)O)cc1C",
    "reported-metric": "TGI",
    "result": "> 100 µM"
  },
  {
    "compound": "CC1=CC(=O)C(O)C2(C)C1CC(O)C13COC4(C)C(OC(=O)C41)C(O)C23 (stereo not given)",
    "reported-metric": "TGI",
    "result": "78.3 µM"
  },
  {
    "compound": "CC(C)(C)c1ccc(C(=O)Nc2sc3c(c2C(N)=O)CCC(=O)C3)cc1",
    "reported-metric": "TGI",
    "result": "3.82 µM"
  }
]

Entry source: PubChem BioAssay (NCI)
